This collection of values is drawn from patent US6780884B2.

Test system: Hippocampal Cell Line (HT22)
Test Description: Glutamate-induced oxidative toxicity in hippocampal cell line (HT22): mitochondrial membrane potential by JC-1 fluorescence ratio
Format: cell-based, mouse
Settings: HT-22 cells, control conditions (no glutamate), 10^-7 M compound, 24h; fluorescence ratio 530/590:480/530
In plain terms, low JC-1 ratio A (control conditions), meaning strictly below 2, gives met, and everything else gives not met.

- COc1ccc2[nH]cc(CCNc3cc(N)c([N+](=O)[O-])cc3[N+](=O)[O-])c2c1: not met
- COc1ccc2[nH]cc(CCNc3cc(NC(C)=O)c([N+](=O)[O-])cc3[N+](=O)[O-])c2c1: met
- O=[N+]([O-])c1ccc(NCCc2c[nH]c3ccccc23)c([N+](=O)[O-])c1: not met
- COc1ccc2[nH]cc(CCNC(C)=O)c2c1 [Melatonin, reference compound]: not met
- Nc1cc(NCCc2c[nH]c3ccccc23)c([N+](=O)[O-])cc1[N+](=O)[O-]: met
- COc1ccc2[nH]cc(CCNc3ccc([N+](=O)[O-])cc3[N+](=O)[O-])c2c1 [ML-23, reference compound]: not met
- Cc1ccc2[nH]cc(CCNc3ccc([N+](=O)[O-])cc3[N+](=O)[O-])c2c1: not met
- CC(=O)Nc1cc(NCCc2c[nH]c3ccccc23)c([N+](=O)[O-])cc1[N+](=O)[O-] [ML-26, 2,4-dinitro-5-tryptylaminoacetanilide]: not met
- CC(=O)Nc1cc(NCCc2c[nH]c3ccc(C)cc23)c([N+](=O)[O-])cc1[N+](=O)[O-]: not met
- Cc1ccc2[nH]cc(CCNc3cc(N)c([N+](=O)[O-])cc3[N+](=O)[O-])c2c1: met

----------
Test system: Hippocampal Cell Line (HT22)
Test Description: Glutamate-induced oxidative toxicity in hippocampal cell line (HT22): mitochondrial membrane potential by JC-1 fluorescence ratio
Assay type: cell-based, mouse
Settings: HT-22 control cells without glutamate, 10^-7 M compound
Quantity Measured: effect on mitochondrial membrane potential of the control cells (in words)

• COc1ccc2[nH]cc(CCNc3cc(NC(C)=O)c([N+](=O)[O-])cc3[N+](=O)[O-])c2c1 = decreased
• O=[N+]([O-])c1ccc(NCCc2c[nH]c3ccccc23)c([N+](=O)[O-])c1 = did not decrease
• Cc1ccc2[nH]cc(CCNc3cc(N)c([N+](=O)[O-])cc3[N+](=O)[O-])c2c1 = decreased
• Nc1cc(NCCc2c[nH]c3ccccc23)c([N+](=O)[O-])cc1[N+](=O)[O-] = decreased
• CC(=O)Nc1cc(NCCc2c[nH]c3ccccc23)c([N+](=O)[O-])cc1[N+](=O)[O-] [ML-26, 2,4-dinitro-5-tryptylaminoacetanilide] = did not decrease
• CC(=O)Nc1cc(NCCc2c[nH]c3ccc(C)cc23)c([N+](=O)[O-])cc1[N+](=O)[O-] = decreased
• COc1ccc2[nH]cc(CCNc3ccc([N+](=O)[O-])cc3[N+](=O)[O-])c2c1 [ML-23, reference compound] = did not decrease
• COc1ccc2[nH]cc(CCNc3cc(N)c([N+](=O)[O-])cc3[N+](=O)[O-])c2c1 = decreased

----------
Known inhibition of the specific 125I-melatonin binding of a selection of compounds
Tested on: 125I-Melatonin Binding in Membranes of Hamster Brain
Test Description: 125I-Melatonin binding in membranes of hamster brain (competition)
Settings: 10^-6M
Quantity Measured: inhibition of the specific 125I-melatonin binding

• COc1ccc2[nH]cc(CCNc3ccc([N+](=O)[O-])cc3[N+](=O)[O-])c2c1 [ML-23, reference compound] = ~13%
• COc1ccc2[nH]cc(CCNC(C)=O)c2c1 [Melatonin, reference compound] = 20%
• Nc1cc(NCCc2c[nH]c3ccccc23)c([N+](=O)[O-])cc1[N+](=O)[O-] [ML-27, N-(2,4-dinitro-5-aminophenyl)tryptamine] = ~13%
• Cc1ccc2[nH]cc(CCNc3ccc([N+](=O)[O-])cc3[N+](=O)[O-])c2c1 [ML-28, N-(2,4-dinitrophenyl)-5-methyltryptamine] = ~13%

----------
Test system: Hippocampal Cell Line (HT22)
Test Description: Glutamate-induced oxidative toxicity in hippocampal cell line (HT22): mitochondrial membrane potential by JC-1 fluorescence ratio
Assay type: cell-based, mouse
Settings: HT-22 cells, +glutamate 5 mM, 10^-7 M compound, 24h; fluorescence ratio 530/590:480/530
Quantity Measured: JC-1 ratio B (+glutamate 5 mM)

• CC(=O)Nc1cc(NCCc2c[nH]c3ccccc23)c([N+](=O)[O-])cc1[N+](=O)[O-] [ML-26, 2,4-dinitro-5-tryptylaminoacetanilide] = 2.11
• CC(=O)Nc1cc(NCCc2c[nH]c3ccc(C)cc23)c([N+](=O)[O-])cc1[N+](=O)[O-] = 1.79
• COc1ccc2[nH]cc(CCNC(C)=O)c2c1 [Melatonin, reference compound] = 2.44
• COc1ccc2[nH]cc(CCNc3cc(N)c([N+](=O)[O-])cc3[N+](=O)[O-])c2c1 = 1.76
• COc1ccc2[nH]cc(CCNc3cc(NC(C)=O)c([N+](=O)[O-])cc3[N+](=O)[O-])c2c1 = 2.13
• Cc1ccc2[nH]cc(CCNc3cc(N)c([N+](=O)[O-])cc3[N+](=O)[O-])c2c1 = 1.57
• COc1ccc2[nH]cc(CCNc3ccc([N+](=O)[O-])cc3[N+](=O)[O-])c2c1 [ML-23, reference compound] = 1.97
• Nc1cc(NCCc2c[nH]c3ccccc23)c([N+](=O)[O-])cc1[N+](=O)[O-] = 1.83
• O=[N+]([O-])c1ccc(NCCc2c[nH]c3ccccc23)c([N+](=O)[O-])c1 = 2.01
• Cc1ccc2[nH]cc(CCNc3ccc([N+](=O)[O-])cc3[N+](=O)[O-])c2c1 = 2.28

----------
Test system: 125I-Melatonin Binding in Membranes of Hamster Brain
Test Description: 125I-Melatonin binding in membranes of hamster brain (competition)
Settings: competitor 10^-6M; 125I-melatonin 250 pM, 37° C., 60 min; radioactivity, unit not given
Quantity Measured: 125I-melatonin bound at competitor concentration 10-6M

• CC(=O)Nc1cc(NCCc2c[nH]c3ccccc23)c([N+](=O)[O-])cc1[N+](=O)[O-] [ML-26, 2,4-dinitro-5-tryptylaminoacetanilide] = 411
• O=[N+]([O-])c1ccc(NCCc2c[nH]c3ccccc23)c([N+](=O)[O-])c1 = 390
• COc1ccc2[nH]cc(CCNc3ccc([N+](=O)[O-])cc3[N+](=O)[O-])c2c1 [ML-23, reference compound] = 403
• COc1ccc2[nH]cc(CCNc3cc(NC(C)=O)c([N+](=O)[O-])cc3[N+](=O)[O-])c2c1 = 409
